The reported measurements were obtained from patent US20260151375A1.

# TARGET ENTITY: CDK2/Cyclin E1 (Homo sapiens, UniProt P24941)
# Construct: purchased 14-475
# ASSAY OVERVIEW: ADPGLO (CDK2/E1-37 C), ADP-Glo Luminescent Kinase Assay
# Format: biochemical
# TEST SETTINGS: 0.18 nM CDK2/Cyclin E1, 100 μM ATP, Histone H1, 37° C.
Entries and their IC50

Query block: Could you share which IC50 value was measured for CC(c1nc(C2CN(C(=O)c3cnn(Cc4ccc(C#N)cc4C(=O)O)c3)CC23CN(C(=O)C2(C(F)(F)F)CC2)C3)no1)n1ccc(C2(C(F)(F)F)CC2)n1 (stereo not drawn) ?
Result block: 0.5 to 5 µM

Query block: Could you share which IC50 value was measured for CC(c1nc(C2CN(C(=O)c3cnn(Cc4cc(F)c(C(=O)O)c(F)c4)c3)CC23CN(C(=O)[C@H]2CC2(C)C)C3)no1)n1ccc(C2CCCC2)n1 (stereo partly drawn) ?
Result block: 0.5 to 5 µM

Query block: Could you share which IC50 value was measured for CC(c1nc(C2CN(C(=O)c3cncs3)CC23CN(C(=O)[C@H]2CC2(C)C)C3)no1)n1ccc(C2CCCC2)n1 (single isomer, unassigned) [I-36 3rd] ?
Result block: ≤ 0.5 µM

Query block: Could you share which IC50 value was measured for CC(c1nc(C2CN(C(=O)c3cnn(CC(=O)O)c3)CC23CN(C(=O)[C@H]2CC2(C)C)C3)no1)n1ccc(C2CCCC2)n1 (stereo partly drawn) ?
Result block: 5 to 10 µM

Query block: Could you share which IC50 value was measured for CC1(C)C[C@@H]1C(=O)N1CC2(CN(C(=O)c3cnccn3)CC2c2nnc(C(F)(F)c3ccc(Cl)c(Cl)c3)o2)C1 (single isomer, unassigned) ?
Result block: > 10 µM

Query block: Could you share which IC50 value was measured for CC(c1nc(C2CN(C(=O)c3nccnc3O)CC23CN(C(=O)[C@H]2CC2(F)F)C3)no1)n1ccc(C2CCCC2)n1 (stereo partly drawn) ?
Result block: > 10 µM
